System: NCI-H322M lung
Assay: NCI-60 one-dose screen, 48 h (100 = growth as untreated, 0 = no growth, -100 = all killed)
Conditions: 10 µM unless noted
Protocol: Growth inhibition of the NCI-H322M human Non-Small Cell Lung tumor cell line is measured as a screen for anti-cancer activity. Cells are grown in 96 well plates and exposed to the test compound for 48 hours. Compounds are tested at a single concentration, which is 10^-5 M for most compounds. The reported endpoint is percent growth (GI% or GIPRCNT), where numbers from 0 - 100% represent growth inhibition, and numbers from -100% - 0 represent cell death. […]
About 83,000 compounds went through this panel and 20% of them were active in at least one assay; those are over-represented in the sample as a whole.
Readout label: growth (%)

CN(C)CCOC(=O)C(C)(C)C : 107
COc1ccc(/C=C2\SC(=O)N(Cc3cc(=O)oc4ccc(OC)cc34)C2=O)cc1 : 84.9
CCCCCCCCCCCCCCCCCC1=NCCN1CS(=O)(=O)O : 15.5
Cc1nc2c(nnn2-c2ccccc2)c2nc(-c3ccccc3)oc(=O)c12 : 103
CCOC(=O)C1C(=O)C(=O)N(C(C)C)C1C(=O)OCC (configuration not stated) : 104
CC1=C(C)C(=O)C(C(C)C2=C(C)C(=O)C(C)=C(C)C2=O)=C(C)C1=O : 111
CCCC[N+](C)(N)CCCC : 103
CC(=O)CC(=O)OC/C=C(/C)CCC=C(C)C : 118
CCCCCSc1ccc2nc(NC(=O)OCCC)sc2c1 : 50
Cc1ccc(C(=O)NN)cc1 : 127
Nc1ccc(S(=O)(=O)c2ccc(NO)cc2)cc1 : 116
COc1cc2oc(-c3ccc(NC(=O)c4ccccc4)cc3)cc(=O)c2c(OC)c1OC : 69.4

---

growth overview
Test system: NCI/ADR-RES ovarian
Assay: NCI-60 one-dose screen, 48 h (100 = growth as untreated, 0 = no growth, -100 = all killed)
Conditions: 10 µM unless noted
Protocol: Growth inhibition of the NCI/ADR-RES human […] tumor cell line is measured as a screen for anti-cancer activity. Cells are grown in 96 well plates and exposed to the test compound for 48 hours. Compounds are tested at a single concentration, which is 10^-5 M for most compounds. The reported endpoint is percent growth (GI% or GIPRCNT), where numbers from 0 - 100% represent growth inhibition, and numbers from -100% - 0 represent cell death. For example, a value of 40 represents 60% growth inhibition. […]
The panel holds about 83,000 compounds, 20% with a hit somewhere; the sample as a whole holds those more often.
Readout label: growth (%)

CCCCCCCCCC[N+](C)(C)N : 112
NC(N)=Nc1ccc(/C=C2\C=Cc3ccccc32)cc1 : 80.9
Brc1ccc(-c2nc3ccccc3s2)cc1 : 99.3
COc1cc([C@@H]2c3cc4c(cc3[C@H](O)[C@H]3COC[C@@H]23)OCO4)cc(OC)c1OC : 64.9
O=C(N/N=C\c1ccc(-c2ccc(Br)cc2)o1)c1cc2oc(-c3cccc(C(F)(F)F)c3)cc2[nH]1 : 96
O=c1[nH]c(=S)[nH]c(O)c1/C=C1\C=Nc2ccccc21 : 87.9

---

system: SF-539 CNS; assay: NCI-60 one-dose screen, 48 h (100 = growth as untreated, 0 = no growth, -100 = all killed); conditions: 10 µM unless noted
This is part of a sample that, as a whole, favours compounds with a hit. Of some 83,000 tested, about 20% had one in any assay.
Readout label: growth (%)

C=CCC(CCC(CC=C)C(=O)OCC)C(=O)OCC (stereo unspecified) : 105
C=C(NC(=O)[C@H](C(C)C)N(C)c1cccc2[nH]ccc12)C(=O)OC : 117
NC(N)=N/N=C/c1cccc(Br)c1 : 101
CCS(=O)(=O)N[C@@H]1O[C@H](COC(C)=O)C(OC(C)=O)[C@H](OC(C)=O)C1OC(C)=O (stereo partly specified) : 95.1
CCOC(=O)NNc1[nH]c(-c2ccc(OC)cc2)cc1C#N : 94.3
COc1cc(OC)cc(-c2ccc(-c3ccc(C(=N)N)cc3)s2)c1 : -88.7
O=C1C(=O)c2ccccc2C(O)=C1CCCc1ccc(Oc2ccccc2)cc1 : 68.6
CCCCCC(=C/c1ccccc1)/C=N/N=C(N)N : 45.5
COc1cc(OC)c(NC(=O)n2ncc3cc(Nc4ncnc5ccccc45)ccc32)cc1Cl : 99.5
COc1cccc2c1n([O-])c1cccc(OC)c1[n+]2=O : 68.4
CCOC(=O)NC1=NCC(C)(C)S1 : 110

---

system: SNB-19 CNS; test: NCI-60 one-dose screen, 48 h; details: 10 µM unless noted
Compounds without any hit were thinned out: in the full panel of roughly 83,000, 20% have a hit. Calls of active or inactive are those of the source. How the source made its calls: active means growth percent below 10; inactive means the rest.
Classes used: active, inactive

COc1cc(N2C(=O)C=CC2=O)ccc1N1C(=O)C=CC1=O : inactive
O=C1C(=O)c2ccccc2C(O)=C1CCCc1ccc(C2CCCC2)cc1 : inactive
NC(N)=N/N=C/c1cccc(Br)c1 : inactive
COc1cc2cc3cc4cc(OC)c(OC)cc4c(C)[n+]3cc2cc1OC (tested in a mixture with another compound) : inactive
CCCCCc1ccnc(CC(=O)c2ccc(OC)cc2)c1 : inactive
COc1ccc(C(=O)c2no[n+]([O-])c2C(=O)c2ccc(OC)cc2)cc1 : inactive
COc1ccc(-c2nc(SCC(C)C)nc(Nc3ccc(C)cc3)c2C#N)cc1 : inactive
COc1ccc2nc3cc(Cl)ccc3c(NCCCNC(C)=O)c2c1 : inactive
CC(Br)c1nc2ccccc2cc1C(N)=O (stereo not drawn) : inactive
CC(=O)N1CCN(CCNC(=O)n2cc(-c3ccncc3)c(-c3cc(O)cc(Cl)c3)n2)CC1 : inactive
Cc1nn(-c2ccccc2)c(N)c1N=C1NC(=O)/C(=C/c2ccc(Cl)cc2)S1 : inactive
O=CN/N=C/c1ccc(Cl)c([N+](=O)[O-])c1 : inactive
CCOc1ccccc1/C=N\N=C(N/N=C/c1ccccc1OCC)N/N=C/c1ccccc1OCC : inactive
O=C1C(Cl)=C(Nc2ccc(Nc3ccccc3)c(NC3=C(Cl)C(=O)c4ccccc4C3=O)c2)C(=O)c2ccccc21 : inactive
Oc1ccc([S+](c2ccc(O)cc2)c2ccc(O)cc2)cc1 : inactive
CC(=O)Nc1ccc(S(=O)(=O)Cl)cc1 : inactive
CC(=O)O.[In] : inactive
CCOC(=O)c1sc(NS(=O)(=O)c2ccccc2)nc1C : inactive
CCCCCCNc1nc(N2CCOCC2)c2[nH]c(NCCCCCC)nc2n1 : active
CC(C)(CNC1CCCCC1)OC(=O)c1ccccc1 : inactive
CC1C(=O)CCCC1=O : inactive
NC(=O)c1c(Nc2ccccc2)nn2cc(-c3nc4ccccc4s3)c(N)nc12 : inactive
CSC1=Nc2c(c(C)c(-c3ccccc3)n2CCCCl)C2=NC(=O)CN12 : inactive

---

system: HOP-92 NSCLC; assay: NCI-60 one-dose screen, 48 h (100 = growth as untreated, 0 = no growth, -100 = all killed); conditions: 10 µM
Compounds without any hit were thinned out: in the full panel of roughly 83,000, 20% have a hit.
growth class ranges: lower bin (below 30%), middle bin (30% to below 80%), upper bin (80% or more)

O=C1CSC(c2ccccc2Cl)N1c1nnc(-c2ccncc2)o1 (stereo unspecified) : upper bin
Nc1nc2c(c3cnccc13)C(c1cccc(Cl)c1)Cc1cnccc1-2 (stereo unspecified) : middle bin
COc1cc(-c2cc3cnccc3c3nc(N)c4ccncc4c23)cc(OC)c1OC : lower bin
O=C(/C=C1\C(=O)N(Cc2ccc([N+](=O)[O-])cc2)c2ccccc21)c1ccc(OCCN2CCCCC2)cc1 : lower bin
NNC(=S)N1N=C(c2cc3ccccc3o2)CC1c1c[nH]c2ccccc12 (stereo unspecified) : middle bin
Nc1nc2c(c3ncncc13)C(c1cccc(C(F)(F)F)c1)Cc1ncncc1-2 (stereo unspecified) : middle bin
O=C1C(Cl)=C(Nc2ccc(Nc3ccccc3)c(NC3=C(Cl)C(=O)c4ccccc4C3=O)c2)C(=O)c2ccccc21 : middle bin
Cc1ccc2c(c1)C(=O)CCS2 : upper bin
Cc1ccc(S(=O)(=O)NC(CCC(=O)Nc2ccccc2)C(=O)Nc2ccccc2)cc1 (stereo unspecified) : lower bin
c1ccc(Nc2ccccn2)cc1 : upper bin
CC(=O)Nc1ccc(CC#N)cc1Br : upper bin
COc1cc(NC(C)CCCN)c2nc(C)ccc2c1OC (stereo unspecified) : middle bin
Cc1cc(CSc2ccc(Cl)cc2)ccc1N : upper bin
COc1ccc(CNCCCN2C(=O)c3ccc4c5c(ccc(c35)C2=O)C(=O)N(CCCNCc2ccc(OC)c(OC)c2OC)C4=O)c(OC)c1OC : lower bin
O=C(Nc1cccc(Cn2c(=O)[nH]c3ccc(Oc4ncccn4)cc3c2=O)c1)c1ccc(Cl)cc1 : middle bin
Nc1cc(N)c2nc(NCCc3ccc(Cl)c(Cl)c3)cnc2c1 : lower bin
COC(=O)c1ccc2[nH]c(O)c(C(=Nc3ccc(N(C)C(=O)CN4CCN(C)CC4)cc3)c3ccc(C)cc3)c2c1 : middle bin
COc1cc(Cn2ccc3c2-c2oncc2CC3)cc(OC)c1 : middle bin
C=C(NC(=O)[C@H](C(C)C)N(C)c1cccc2[nH]ccc12)C(=O)OC : upper bin
